- TEST TARGET: wild-type B-RAF (Homo sapiens, UniProt P15056)
- Sequence (P15056 whole entry): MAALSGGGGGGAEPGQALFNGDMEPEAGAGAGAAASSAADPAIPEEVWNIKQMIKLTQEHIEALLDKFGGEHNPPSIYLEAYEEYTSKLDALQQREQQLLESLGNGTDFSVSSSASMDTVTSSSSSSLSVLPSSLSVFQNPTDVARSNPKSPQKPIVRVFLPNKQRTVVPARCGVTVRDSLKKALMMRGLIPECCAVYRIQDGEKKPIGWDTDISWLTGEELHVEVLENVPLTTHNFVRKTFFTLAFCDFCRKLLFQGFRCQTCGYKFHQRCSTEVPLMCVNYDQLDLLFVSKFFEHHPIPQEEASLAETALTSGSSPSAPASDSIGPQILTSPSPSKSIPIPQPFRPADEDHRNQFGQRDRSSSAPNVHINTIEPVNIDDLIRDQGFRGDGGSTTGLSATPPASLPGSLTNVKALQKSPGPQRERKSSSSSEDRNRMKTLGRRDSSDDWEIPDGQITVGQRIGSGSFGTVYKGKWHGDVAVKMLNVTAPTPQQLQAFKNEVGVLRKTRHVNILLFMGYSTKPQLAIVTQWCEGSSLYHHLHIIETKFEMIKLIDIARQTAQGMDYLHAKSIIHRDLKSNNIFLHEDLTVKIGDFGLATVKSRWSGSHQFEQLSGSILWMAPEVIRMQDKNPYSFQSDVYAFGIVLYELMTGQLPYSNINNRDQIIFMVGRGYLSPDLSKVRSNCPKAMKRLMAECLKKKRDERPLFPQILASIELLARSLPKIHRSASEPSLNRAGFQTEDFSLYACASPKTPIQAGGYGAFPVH
- ASSAY REMARKS: In vitro assay for inhibition of B-RAF kinase (recombinant wild-type B-RAF, MEK (K97R) substrate)
- CONDITION INFO: 10 nM recombinant wild-type B-RAF, 1 μM MEK (K97R) substrate; read-out: BRAF IC50
pIC50: −log10 of the molar value.

SMILES REPR	pIC50
O=C(O)c1cccc(-c2[nH]c(-c3ccccc3)nc2-c2ccncc2)c1	5.51
CS(=O)(=O)Nc1cccc(-c2[nH]c(-c3ccccc3)nc2-c2ccncc2)c1	6.10
